# measurementProtocol: Acute toxicity (Test Example 7)
# conditionInfo: rat, in vivo; oral administration, death rate after 7 days; read-out: Rat LDso
quantityKind: LD50 at 168 h

Ask | LD50 at 168 h lookup needed for C#Cc1cccc(C2C(C(=O)OC)=C(C)NC(C)=C2C(=O)OCCN2CCN(C(c3ccccc3)c3ccccc3)CC2)c1 (stereo not shown) , thanks.
Reply | 300 to 1000 mg/kg
